# System: Plasmodium falciparum
# Measurement notes: NOVARTIS: Inhibition of Plasmodium falciparum W2 (drug-resistant) proliferation in erythrocyte-based infection assay
# Type: functional, organism-based
# Condition context: Plasmodium falciparum, W2; read-out: EC50
A collection of compounds and their measured EC50

Study these solved cases before continuing.
| Compound | Readout name | Recorded measurement |
| --- | --- | --- |
| COC(=O)C1=C(C)NC2=C(C(=O)CC(c3ccc(OC)cc3)C2)C1c1ccccc1F (stereo unspecified) | EC50 | 88.4 nM |
| Cc1ccc(-c2cn3c([n+]2-c2ccccc2)SCC3)cc1 | EC50 | 309 nM |
| CCOc1ccc2nc(C)cc(Nc3ccc(C)c(Cl)c3)c2c1 | EC50 | 348 nM |

Memo: `CCCCCc1cc(O)c2c3c(c(=O)oc2c1)CN(C)CC3` , reported EC50: 37.6 nM

Memo: `CCOC(=O)c1cccc(N2C(N)=NC(N)=NC2(C)C)c1` , reported EC50: > 1250 nM

Memo: `O=C(O)c1ccc2c(c1)N=C(c1ccccc1)N(Cc1cccnc1)C2` , reported EC50: 65.7 nM

###

A collection of compounds and their measured pEC50
# System: Plasmodium falciparum
# Measurement notes: NOVARTIS: Inhibition of Plasmodium falciparum W2 (drug-resistant) proliferation in erythrocyte-based infection assay
# Format: functional, organism-based
# Condition context: Plasmodium falciparum, W2; read-out: EC50
Lab note: report pEC50 as minus log10 of the concentration in molar units, number only.

Memo: COc1ccc(C2CC(=O)C3=C(C2)NC(C)=C(C(=O)OC(C)C)C3c2ccc(F)cc2)cc1OC (stereo not given) , reported pEC50: 7.88

Memo: `COC(=O)C1=CNC=C(C(=O)OC)C1c1cc(OC)c(OC)c(OC)c1` , reported pEC50: 5.35

Memo: CC1=C(C=CC(C)C=NNC(=O)c2ccncc2)C(C)(C)CCC1 (stereo not given) , reported pEC50: 6.06

Memo: `CC(C)(C)CC(C)(C)Nc1c(-c2ccccc2OC(=O)c2ccccc2Cl)nc2ccccn12` , reported pEC50: 7.23

###

# Measurement notes: NOVARTIS: Cytotoxicity against human hepatocellular carcinoma cell line (Huh7)
# Type: toxicity, cell-based, Huh-7
# Condition context: Huh7 cells (hepatocellular carcinoma cell line)
A collection of compounds and their measured CC50

| Compound | Readout name | Recorded measurement |
| --- | --- | --- |
| O=C(Nc1ccc(-c2nc3cc(NC(=O)c4cccs4)ccc3[nH]2)cc1)c1cccs1 | CC50 | > 100 µM |
| COc1cccc(C(Nc2cc(C)ccn2)c2ccc3cccnc3c2O)c1 (stereo not given) | CC50 | > 93.5 µM |
| C#CC(C)(C)NC(=O)c1ccc(-c2ccc(CC)cc2)cc1 | CC50 | > 100 µM |

Memo: COCCOC(=O)C1=C(C)NC2=C(C(=O)CC(c3ccc(OC)c(OC)c3)C2)C1c1cccc(Cl)c1Cl (stereo not given) , reported CC50: > 100 µM

Memo: `CC(=O)N(C1=C(N(C)C)C(=O)c2ccccc2C1=O)c1ccc(F)cc1` , reported CC50: 2.68 µM

Memo: `COc1ccc(OC)c(-c2ccc(C(=O)N3CCN(C/C=C/c4ccccc4)CC3)c(N(C)C)n2)c1` , reported CC50: > 10 µM

Memo: `CCOC(=O)CCS(=O)(=O)c1ccc(Br)cc1` , reported CC50: > 10 µM

Memo: `O=C(NCCC1=CCCCC1)c1ccc2c(=O)n(-c3ccccc3)c(SCc3nc4ccccc4[nH]3)nc2c1` , reported CC50: > 0.912 µM

Memo: `COc1cc(C=CC(=O)Nc2ccc3nc(N4CCN(c5ncccn5)CC4)cc(C)c3c2)cc(OC)c1OC` , reported CC50: 7.42 µM

Memo: CCc1cc(=O)n(C)c(SC(C)C(=O)Nc2ccc(F)cc2)n1 (stereo not given) , reported CC50: > 10 µM

Memo: `CC(=O)c1ccc(NC(=O)CSc2nnc3c4c(-c5ccc(F)cc5)csc4ncn23)cc1` , reported CC50: > 100 µM

Memo: `CCC(CC)CN1CCC(O)(c2ccc3oc(C(=O)Nc4ccc(OC)c(OC)c4)cc3c2)CC1` , reported CC50: > 85.9 µM

Memo: `CC(C)Sc1nc2c(c(=O)n1Cc1ccco1)C1(CCCCC1)Cc1ccccc1-2` , reported CC50: > 100 µM

Memo: `Cc1cc(N2CCN(Cc3ccccc3)CC2)n2c(nc3ccccc32)c1C#N` , reported CC50: > 100 µM

Memo: CCCCn1c(=N)n(CC(O)c2ccc(Cl)c(Cl)c2)c2ccccc21 (stereo not given) , reported CC50: 6.24 µM

Memo: COc1cc(NC(C)CCCN(Cc2ccccc2OC)C(=O)COCc2ccccc2)c2ncccc2c1 (stereo not given) , reported CC50: > 10 µM

Memo: CCOc1ccc(C(=O)CN2C(=O)c3ccccc3OC(C(C)C)C2=O)cc1[N+](=O)[O-] (stereo not given) , reported CC50: > 100 µM

Memo: `Cc1ccc(-n2nnnc2SCc2nc(-c3cccc([N+](=O)[O-])c3)no2)c(C)c1` , reported CC50: > 100 µM

Memo: `c1cncc(-c2cc(NCCCN3CCOCC3)nc(-c3ccncc3)n2)c1` , reported CC50: > 10 µM

Memo: CN1CCCC(CNC(=O)c2cnn(-c3ncc4c(n3)-c3ccccc3SC4)c2C2CC2)C1 (stereo not given) , reported CC50: > 10 µM

###

A collection of molecules and their measured EC50
# System: Plasmodium falciparum
# Measurement notes: NOVARTIS: Inhibition of Plasmodium falciparum W2 (drug-resistant) proliferation in erythrocyte-based infection assay
# Type: functional, organism-based
# Condition context: Plasmodium falciparum, W2; read-out: EC50

| Molecule | Readout name | Recorded measurement |
| --- | --- | --- |
| CCOC(=O)C1=C(C)NC2=C(C(=O)CC(c3ccc(OC)c(OC)c3)C2)C1c1ccc(Cl)c(Cl)c1 (stereo unspecified) | EC50 | 105 nM |
| CC1CCCCN1CCCNc1ncc(C(=O)NCc2ccccc2)c(NC2CCCC2)n1 (stereo unspecified) | EC50 | > 1250 nM |
| COc1ccc(C2CC(=O)C3=C(C2)NC(=O)CC3c2ccc(C(F)(F)F)cc2)cc1OC (stereo unspecified) | EC50 | 123 nM |
| CCn1c(SCCNC(=O)CC(C)C)nc(-c2ccccc2)c1-c1ccccc1 | EC50 | > 922 nM |
| O=C(NCCCN1CCCC1=O)c1cnc(N2CCN(Cc3ccccc3)CC2)nc1NCCc1ccccc1 | EC50 | 699 nM |

Memo: COc1ccc(CCN2CC(CNC(=O)Cc3cccnc3)C(c3ccc(N(C)C)cc3)C2)cc1OC (stereo unspecified) , reported EC50: > 306 nM

Memo: `CC(=O)c1ccc(OCCSc2nc3c(N)ncnc3[nH]2)cc1` , reported EC50: > 9150 nM

Memo: `CCOC(=O)c1ccc2c(c1)[C@@H]1C=CC[C@@H]1[C@H](c1ccc(OC)c([N+](=O)[O-])c1)N2` , reported EC50: 376 nM

###

# Measurement notes: NOVARTIS: Cytotoxicity against human hepatocellular carcinoma cell line (Huh7)
# Format: toxicity, cell-based, Huh-7
# Condition context: Huh7 cells (hepatocellular carcinoma cell line)
A collection of compounds and their measured CC50

Memo: `Oc1ccc(Cl)cc1CNc1nc2ccccc2[nH]1` , reported CC50: 43.5 µM

Memo: `c1ccc2cc3c(Nc4ccc(N5CCOCC5)cc4)ccnc3cc2c1` , reported CC50: 69.5 µM

Memo: `CC[N+]1(CCOc2ccc(C34CC5CC(CC(C5)C3)C4)cc2)CCCCC1` , reported CC50: 58.2 µM

Memo: `CCN1/C(=C/c2sc3ccc(I)cc3[n+]2CC)C=Cc2ccccc21` , reported CC50: > 10 µM

Memo: `FC(F)(F)c1cnc(Sc2nnc(-c3ccncc3)o2)c(Cl)c1` , reported CC50: 83.9 µM

Memo: `COc1ccc(Cn2cccc(C(=O)Nc3ccc(OC)cc3)c2=O)cc1` , reported CC50: 42.5 µM

Memo: `Cc1cc(/C=C2\SC(=Nc3ccccc3)N(C3CCCCC3)C2=O)c(C)n1-c1ccc(Br)cc1` , reported CC50: > 10 µM

Memo: CCCCn1c(=N)c(C(=O)NC(C)c2ccccc2)cc2c(=O)n3cccc(C)c3nc21 (configuration not stated) , reported CC50: > 100 µM

###

# Tested on: Plasmodium falciparum
# Measurement notes: NOVARTIS: Inhibition of Plasmodium falciparum 3D7 (drug-susceptible) proliferation in erythrocyte-based infection assay
# Type: functional, organism-based
# Condition context: Plasmodium falciparum, 3D7
pEC50: −log10 of the molar value.
pEC50 below 6 gives False; pEC50 at or above it gives True.

Some solved cases for reference:
| Molecule | Category label |
| --- | --- |
| O=C(Nc1ccc(O)cc1)c1cccc(S(=O)(=O)N2CCCCC2)c1 | False |
| Cc1cc(N2CCN(C)CC2)nc2ccc(NC(=O)/C=C/c3ccc4c(c3)OCO4)cc12 | False |
| CC1(C)C=C(C23C=CC(C2)C2C(=C4CC(C)(C)NC(C)(C)C4)C=CC23)CC(C)(C)N1 (stereo unspecified) | False |
| CCCCC(=O)Nc1ccccc1-c1nnn(CC(=O)Nc2ccc3c(c2)OCCO3)n1 | False |
| CN1CCc2cc3c(c4c2C1Cc1ccccc1-4)OCO3 (stereo unspecified) | True |

## Task pEC50 >= 6 for COc1ccc(C(=O)C(C)[n+]2ccccc2-c2ccccn2)cc1 (stereo unspecified) ?
## Result True

## Task pEC50 >= 6 for `COc1cccc(-c2ccc(O)c(CNCC3CCCCC3)c2)n1` ?
## Result True

## Task pEC50 >= 6 for `CCOC(=O)c1c(CSc2ccccc2)oc2cc(CN(C)C)c(O)c(Cl)c12` ?
## Result True

## Task pEC50 >= 6 for `Oc1nc(-c2ccccn2)nc(C(F)(F)F)c1Br` ?
## Result True

## Task pEC50 >= 6 for `CC(=C(Cl)Cl)C(Br)=C(Br)CO` ?
## Result True

## Task pEC50 >= 6 for `COc1ccc(-n2nc3c(c2NC(=O)C=Cc2cc(OC)c(OC)c(OC)c2)CSC3)cc1` ?
## Result True

## Task pEC50 >= 6 for Cn1c(C(OCC(=O)N2CCN(Cc3ccccc3)CC2)c2cccnc2)cc2ccccc21 (stereo unspecified) ?
## Result False

## Task pEC50 >= 6 for `COc1ccc(CN2CCC(C(=O)Nc3ccc(Oc4cccnc4)cc3)CC2)cc1` ?
## Result False

## Task pEC50 >= 6 for CC(C)CCNCC(O)Cn1c2ccc(Br)cc2c2cc(Br)ccc21 (stereo unspecified) ?
## Result True

## Task pEC50 >= 6 for `CC(=O)N(C1=C(N2CCC(C)CC2)C(=O)c2ccccc2C1=O)c1cccc(F)c1` ?
## Result True

## Task pEC50 >= 6 for `Oc1ccc(-c2cncc(NCc3ccc(Cl)cc3)c2)cc1` ?
## Result True

## Task pEC50 >= 6 for `CCC(/C=C1\Sc2ccc(OC)cc2N1CCCS(=O)(=O)O)=C\c1sc2ccc(OC)cc2[n+]1CCCS(=O)(=O)O` ?
## Result True

## Task pEC50 >= 6 for `Cc1cccc(-n2c(-c3ccccc3)nc3ccc(-c4ccc5nc(-c6ccccc6)n(-c6cccc(C)c6)c(=O)c5c4)cc3c2=O)c1` ?
## Result False
